target: Flt3 (Homo sapiens (Human)); test: FLT-3 kinase activity in cell free in vitro assay; format: biochemical; conditions: cell-free assay; read-out: FLT-3
Sequence (P36888 27-993): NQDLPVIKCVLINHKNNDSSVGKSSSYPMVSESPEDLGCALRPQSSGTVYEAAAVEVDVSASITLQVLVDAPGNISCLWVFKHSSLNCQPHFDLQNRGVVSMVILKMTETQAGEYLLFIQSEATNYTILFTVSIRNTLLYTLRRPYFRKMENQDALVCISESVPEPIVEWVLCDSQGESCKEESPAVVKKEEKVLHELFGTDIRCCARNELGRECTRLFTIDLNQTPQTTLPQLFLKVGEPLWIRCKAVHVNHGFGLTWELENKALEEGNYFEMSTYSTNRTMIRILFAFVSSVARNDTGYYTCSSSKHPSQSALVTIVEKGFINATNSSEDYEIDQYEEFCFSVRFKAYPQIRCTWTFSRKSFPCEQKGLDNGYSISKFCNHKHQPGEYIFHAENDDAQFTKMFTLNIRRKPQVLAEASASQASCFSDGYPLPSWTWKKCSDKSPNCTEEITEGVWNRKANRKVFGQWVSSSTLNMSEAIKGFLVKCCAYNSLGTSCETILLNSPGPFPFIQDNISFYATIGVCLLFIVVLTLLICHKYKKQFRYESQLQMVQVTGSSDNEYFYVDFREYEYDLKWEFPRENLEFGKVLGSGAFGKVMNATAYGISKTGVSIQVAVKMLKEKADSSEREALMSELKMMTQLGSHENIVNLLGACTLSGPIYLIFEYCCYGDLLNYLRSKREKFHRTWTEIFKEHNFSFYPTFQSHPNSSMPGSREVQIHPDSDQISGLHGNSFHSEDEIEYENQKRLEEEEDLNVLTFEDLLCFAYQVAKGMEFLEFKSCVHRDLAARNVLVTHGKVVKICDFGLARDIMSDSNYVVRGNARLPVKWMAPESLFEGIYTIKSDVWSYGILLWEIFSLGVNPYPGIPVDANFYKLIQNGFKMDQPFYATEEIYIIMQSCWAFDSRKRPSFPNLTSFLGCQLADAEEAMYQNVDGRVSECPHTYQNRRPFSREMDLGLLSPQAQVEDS
pIC50: −log10 of the molar value.
metricName: pIC50

NCCNC(=O)c1ccc2c(c1)nc(Nc1cccc(Cl)c1)c1ccncc12	< 6.40
CNC(=O)c1ccc2c(c1)nc(Nc1cccc(Cl)c1)c1ccncc12	< 6.40
CN1CCN(C(=O)c2ccc3c(c2)nc(Nc2cccc(Cl)c2)c2ccncc23)CC1	< 6.40
O=C(NC1CC1)c1ccc2c(c1)nc(Nc1cccc(Cl)c1)c1ccncc12	< 6.40
O=C(c1ccc2c(c1)nc(Nc1cccc(Cl)c1)c1ccncc12)N1CCOCC1	< 6.40
O=C(NCc1ccccn1)c1ccc2c(c1)nc(Nc1cccc(Cl)c1)c1ccncc12	6.54
CC(C)OC(=O)Nc1ccc2c(c1)nc(Nc1cccc(C(F)(F)F)c1)c1nc(NC3CC3)ncc12	< 6.40
CC(=O)N1CCN(C(=O)c2ccc3c(c2)nc(Nc2cccc(Cl)c2)c2ccncc23)CC1	< 6.40
OCc1ccc2c(c1)nc(Nc1cccc(Cl)c1)c1ccncc12	7.89
Cc1cnc(CNC(=O)c2ccc3c(c2)nc(Nc2cccc(Cl)c2)c2ccncc23)cn1	6.44
O=C(NCc1ccccc1)c1ccc2c(c1)nc(Nc1cccc(Cl)c1)c1ccncc12	6.48
NC(=O)c1ccc2c(c1)nc(Nc1cccc(Cl)c1)c1ccncc12 [drawing 1674]	8.52
O=C(Nc1ccccc1)c1ccc2c(c1)nc(Nc1cccc(Cl)c1)c1ccncc12	< 6.40
O=C(NCc1ccncc1)c1ccc2c(c1)nc(Nc1cccc(Cl)c1)c1ccncc12	< 6.40

----------
molecular target: recombinant human PIM1 (Homo sapiens (Human), UniProt P11309); test: PIM-1 kinase activity in cell-free in vitro assay; assay type: biochemical; settings: cell-free assay
Sequence (P11309 whole entry): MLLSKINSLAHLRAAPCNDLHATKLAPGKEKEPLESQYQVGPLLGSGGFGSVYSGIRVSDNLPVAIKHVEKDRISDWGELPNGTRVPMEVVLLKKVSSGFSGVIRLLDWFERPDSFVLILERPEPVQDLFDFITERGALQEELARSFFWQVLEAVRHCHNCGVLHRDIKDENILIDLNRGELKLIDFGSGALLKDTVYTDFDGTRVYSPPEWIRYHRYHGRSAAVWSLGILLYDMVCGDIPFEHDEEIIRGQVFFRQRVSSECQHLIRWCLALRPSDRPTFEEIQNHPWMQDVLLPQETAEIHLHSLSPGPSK
Strictly below 0.2 µM in IC50: T. Otherwise: F.

CN(c1ccccc1)c1nc2cc(C(=O)O)ccc2c2cnc(N)nc12	F
Cc1nccn1CCNc1nc2cc(-c3nnn[nH]3)ccc2c2sccc12	T
CN1CCCC(Nc2nc3cc(-c4nnn[nH]4)ccc3c3sccc23)C1 (centres unmarked)	T
O=C(O)c1ccc2c(c1)nc(NCCn1cccc1)c1ccncc12	T
CN(c1ccccc1)c1nc2cc(C(=O)O)ccc2c2ccncc12	F
CN(c1ccccc1)c1nc2cc(C(=O)O)ccc2c2cnccc12	F
c1cc2c(s1)c(NC1CCNCC1)nc1cc(-c3nnn[nH]3)ccc12	T
CN(C)CCCN(C)c1nc2cc(-c3nnn[nH]3)ccc2c2sccc12	F
O=C(O)c1ccc2c(c1)nc(NN1CCCCC1)c1ccncc12	F
COc1ccccc1Nc1nc2cc(C(=O)O)ccc2c2cnccc12	F
O=C(O)c1ccc2c(c1)nc(Nc1cc(F)cc(Cl)c1)c1ccncc12	T
CN1CCN(c2nc3cc(-c4nnn[nH]4)ccc3c3sccc23)CC1	T
O=C(O)c1ccc2c(c1)nc(NCCn1ccnc1)c1ccncc12	F
O=C(O)c1ccc2c(c1)nc(Nc1ccccc1Cl)c1ccncc12	F
N#Cc1ccc2c(c1)nc(NCCCN)c1ccsc12	T
NC1CCN(c2nc3cc(-c4nnn[nH]4)ccc3c3sccc23)C1 (centres unmarked)	F
O=C(O)c1ccc2c(c1)nc(N1CCC(N3CCOCC3)CC1)c1ccncc12	F
CN1CCCCC1CNc1nc2cc(-c3nnn[nH]3)ccc2c2sccc12 (centres unmarked)	T
CCN1CCCC1CNc1nc2cc(-c3nnn[nH]3)ccc2c2cscc12 (centres unmarked)	T
N#Cc1ccc(Nc2nc3cc(C(=O)O)ccc3c3cnccc23)cc1	F
CCCNc1nc2cc(-c3nnn[nH]3)ccc2c2sccc12	F
O=C(O)c1ccc2c(c1)nc(Nc1ccc3c(c1)OCCO3)c1ccncc12	F
NC(=O)c1cc(Cl)cc(Nc2nc3cc(C(=O)O)ccc3c3cnccc23)c1	T

----------
test: Pharmacokinetics after IV and PO dose in SD rats; type: in vivo; conditions: rat, plasma; IV 1.56 mg/kg, SD Rats
metricName: Vd (L/kg)

C#Cc1cccc(Nc2nc3cc(C(=O)O)ccc3c3cncnc23)c1	0.6

----------
biological target: recombinant human PIM1 (Homo sapiens (Human)); test: PIM-1 kinase activity in cell-free in vitro assay; assay type: biochemical; conditions: 500 nM compound, cell-free assay; read-out: PIM-1: % inh 500 nM
Use -10% as the dividing line for inhibition at 0.5 µM, with the line itself on the TRUE side and lower values as FALSE.

N#Cc1ccc2c(c1)nc(Nc1ccc(F)cc1)c1cscc12	TRUE
O=C(O)c1ccc2c(c1)nc(Nc1ccc(F)c(Cl)c1)c1nc(NCc3cccnc3)ncc12	TRUE
COC(=O)c1ccc2c(c1)nc(NCCN(C)C)c1ccsc12	TRUE
Cc1cnc(CNC(=O)c2ccc3c(c2)nc(Nc2cccc(Cl)c2)c2ccncc23)cn1	FALSE
N#Cc1ccc2c(c1)nc(N1CCN(c3ccccn3)CC1)c1ccsc12	TRUE
COC(=O)c1ccc2c(c1)nc(N(C)c1ccccc1)c1nc(S(C)(=O)=O)ncc12	TRUE
O=C(O)c1ccc2c(c1)nc(Nc1cccc(Cl)c1)c1nc(O)ncc12	TRUE
Clc1cccc(Nc2nc3cc(-c4nnc[nH]4)ccc3c3cnccc23)c1	FALSE
CN1CCN(c2nc3cc(C(=O)NC4CC4)ccc3c3sccc23)CC1	FALSE
C#Cc1cccc(Nc2nc3cc(C(=O)N(C)c4ccccc4)ccc3c3cncnc23)c1	FALSE
Cc1cnc(CNC(=O)c2ccc3c(c2)nc(N2CCN(C)CC2)c2ccsc23)cn1	TRUE
O=C(O)c1ccc2c(c1)nc(Nc1ccn[nH]1)c1ccncc12	TRUE
N#Cc1ccc2c(c1)nc(Nc1cccc(F)c1)c1cscc12	FALSE
c1cc2c(N3CCC(N4CCCC4)CC3)nc3cc(-c4nnn[nH]4)ccc3c2s1	TRUE
N#Cc1ccc2c(c1)nc(Nc1cccc(Cl)c1)c1cscc12	FALSE
NNC(=O)c1ccc2c(c1)nc(Nc1cccc(Cl)c1)c1ccncc12	FALSE
CN(C)CCCNc1nc2cc(C#N)ccc2c2sccc12	TRUE
CN(C)CCNc1nc2cc(C(=O)O)ccc2c2cnc(NC3CC3)nc12 [drawing 1642]	FALSE
O=C(O)c1ccc2c(c1)nc(Nc1cccc(F)c1)c1cnccc12	TRUE
CN(C)CCNc1nc2cc(C#N)ccc2c2ccsc12	TRUE
CCOCCCNc1ncc2c(n1)c(NC1CC1)nc1cc(C(=O)O)ccc12	TRUE
O=C(O)c1ccc2c(c1)nc(NC1CC1)c1nc(NCc3ccccn3)ncc12	TRUE

----------
target: recombinant human CK2 (Homo sapiens (Human), UniProt P68400); assay: CK2 assay (cell-free, 33P-ATP filter plate); assay type: biochemical; conditions: 15 um ATP, cell-free assay; read-out: CK2 (15 um ATP) IC50
Sequence (P68400 whole entry): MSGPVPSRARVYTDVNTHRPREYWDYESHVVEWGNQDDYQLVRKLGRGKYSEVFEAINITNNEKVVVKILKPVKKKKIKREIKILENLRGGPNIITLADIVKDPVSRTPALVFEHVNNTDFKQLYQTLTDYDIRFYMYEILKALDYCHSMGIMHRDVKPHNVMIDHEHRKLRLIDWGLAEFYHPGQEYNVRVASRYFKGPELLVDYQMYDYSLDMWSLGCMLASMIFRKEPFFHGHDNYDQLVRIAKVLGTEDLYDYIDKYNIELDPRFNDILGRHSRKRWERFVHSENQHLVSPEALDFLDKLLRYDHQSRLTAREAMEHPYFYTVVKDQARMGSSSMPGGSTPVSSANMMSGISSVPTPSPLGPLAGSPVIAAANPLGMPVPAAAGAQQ
Sequence (P67870 whole entry partner): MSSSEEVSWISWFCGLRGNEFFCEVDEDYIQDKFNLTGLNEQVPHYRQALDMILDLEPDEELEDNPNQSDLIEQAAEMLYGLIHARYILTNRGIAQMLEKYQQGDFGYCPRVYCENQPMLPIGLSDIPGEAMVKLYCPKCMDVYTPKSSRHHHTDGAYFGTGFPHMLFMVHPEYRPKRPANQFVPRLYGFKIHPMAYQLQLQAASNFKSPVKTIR
pIC50: −log10 of the molar value.
metricName: pIC50

O=C(O)c1ccc2c(c1)nc(NC1CC1)c1nc(NCC3CC3)ncc12	8.10
CC(C)OCCCNc1ncc2c(n1)c(NC1CC1)nc1cc(C(=O)O)ccc12	7.13
CC(Nc1ncc2c(n1)c(NC1CC1)nc1cc(C(=O)O)ccc12)c1ccccc1 (stereo not drawn)	6.64
O=C(O)c1ccc2c(c1)nc(NC1CC1)c1nc(NCC3CCCO3)ncc12 (stereo not drawn)	7.38
CC(C)C(CO)Nc1ncc2c(n1)c(NC1CC1)nc1cc(C(=O)O)ccc12 (stereo not drawn)	6.78
O=C(O)c1ccc2c(c1)nc(NC1CC1)c1nc(Nc3cccc(F)c3F)ncc12	7.77
NC(=O)c1ccc2c(c1)nc(NC1CC1)c1nc(NC3CC3)ncc12	6.87
COCCNc1ncc2c(n1)c(NC1CC1)nc1cc(C(=O)O)ccc12	7.89
O=C(NC1CC1)c1ccc2c(c1)nc(Nc1cccc(Cl)c1)c1ccncc12	6.31
O=C(O)c1ccc2c(c1)nc(NC1CC1)c1nc(Nc3cccc(Cl)c3)ncc12	7.02
CC(C)OCCNc1ncc2c(n1)c(NC1CC1)nc1cc(C(=O)O)ccc12	7.19
O=C(O)c1ccc2c(c1)nc(NC1CC1)c1nc(NCc3cccnc3)ncc12	7.64

----------
assay: Pharmacokinetics after IV and PO dose in SD rats; assay type: in vivo; details: Sprague-Dawley, rat, plasma; IV 1.56 mg/kg, SD Rats
metricName: Cmax (ng/mL)

C#Cc1cccc(Nc2nc3cc(C(=O)O)ccc3c3cncnc23)c1 [Compound A2]	34300

----------
# IC50 values compiled below
biological target: recombinant human PIM1 (Homo sapiens (Human), UniProt P11309); experiment: PIM-1 kinase activity in cell-free in vitro assay; type: biochemical; conditions: cell-free assay
metricName: IC50 (nM)

O=C(O)c1ccc2c(c1)nc(Nc1ccc3c(c1)OCO3)c1ccncc12	157
CN(C)CCNc1nc2cc(-c3nnn[nH]3)ccc2c2sc(Br)cc12	656
COc1cccc(Nc2ncc3c(n2)c(NC2CC2)nc2cc(C(=O)O)ccc23)c1 [drawing 1720]	970
Cc1ccc(Nc2nc3cc(C(=O)O)ccc3c3cnccc23)cc1	478
Cn1cnnc1-c1cccc(Nc2nc3cc(C(=O)O)ccc3c3cnccc23)c1	344
c1cc2c(NCC3CCCN3)nc3cc(-c4nnn[nH]4)ccc3c2s1 (stereo not shown)	46
Nc1ncc2c(n1)c(Nc1cccc(C(F)(F)F)c1)nc1cc(C(=O)O)ccc12	443
CC(C)OCCCNc1nc2cc(C(=O)O)ccc2c2cnccc12	402
